Measured values drawn from the supplement of paper PMC9233669 for this set.

Tested on: biotinyl-Trp-oxazolone
procedure_text: self-aminoacylation, catalytic enhancement (BWO) (fold over background); higher = more active; k-Seq, kA / k0A0; sequences stand for … in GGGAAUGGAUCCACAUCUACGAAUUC…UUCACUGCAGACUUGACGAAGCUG
This sample holds only a part of the variants without activity.
Listed here are sequences together with their documented self-aminoacylation.
outcome_measure: self-aminoacylation

sequence_data | numeric_result
UCACAAUUCAAGCAAUCGGUC [Fam1B.1 aminoacylation ribozyme variant] | 1.39
CCACACUUGAGGCAAUCGGUC [Fam1B.1 aminoacylation ribozyme variant] | 1.86
CCACACUUCAAGCAAUCCGCC [Fam1B.1 aminoacylation ribozyme variant] | 0.899
CUACUUCAAACAUUAGGUCUG [Fam1A.1 aminoacylation ribozyme variant] | 0.535

====

Test system: biotinyl-Met-oxazolone
procedure_text: self-aminoacylation, catalytic enhancement (BMO) (fold over background); higher = more active; k-Seq, kA / k0A0; sequences stand for … in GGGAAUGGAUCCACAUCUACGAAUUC…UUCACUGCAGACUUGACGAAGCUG
Fewer inactive variants are shown than the library holds.
Binning of self-aminoacylation into classes: category 1: < 3; category 2: ≥ 3 and < 10; category 3: ≥ 10

sequence_data | assigned_label
AUUACCCUCGUUAUCGAGUGA [Fam2.1 aminoacylation ribozyme variant] | category 3
CUUCACCUAGGUCAUCGCGUG [Fam2.2 aminoacylation ribozyme variant] | category 3
AGUCACCUAGGUCACCGGGUG [Fam2.2 aminoacylation ribozyme variant] | category 2
AUUACCCUGGACAUCGUGUGA [Fam2.1 aminoacylation ribozyme variant] | category 1
GUUACCCUGGUCAUCGAGUAA [Fam2.1 aminoacylation ribozyme variant] | category 3
AUUCACCUAUGCCAUCGGGUG [Fam2.2 aminoacylation ribozyme variant] | category 1
CUACUUCAACCAAUCGGUCUC [Fam1A.1 aminoacylation ribozyme variant] | category 1
CUUCACCUACGUCAUCGGGUG [Fam2.2 aminoacylation ribozyme variant] | category 2
AUUACGCUGGCCAUCGAGUGA [Fam2.1 aminoacylation ribozyme variant] | category 2

====

This listing pairs sequences with measured self-aminoacylation.
Tested on: biotinyl-Phe-oxazolone
procedure_text: self-aminoacylation, catalytic enhancement (BFO) (fold over background); higher = more active; k-Seq, kA / k0A0; sequences stand for … in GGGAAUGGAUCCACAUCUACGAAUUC…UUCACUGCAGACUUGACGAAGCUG
This sample holds only a part of the variants without activity.
outcome_measure: self-aminoacylation

sequence_data | result
AAGUUUGCUAAUAGUUGCACG [Fam3.1 aminoacylation ribozyme variant] | 1.38
AAGUUUACUAAUAGUCGCAAG [Fam3.1 aminoacylation ribozyme variant] | 2.7
AUUCACCUGGGUCAUGGGGUG [Fam2.2 aminoacylation ribozyme variant] | 51.6
ACCACCCUGGUCAUCGAGUGA [Fam2.1 aminoacylation ribozyme variant] | 27.9
AUUCCCCUGGUCAUCGAUUGA [Fam2.1 aminoacylation ribozyme variant] | 1.13

====

Test system: biotinyl-Phe-oxazolone
procedure_text: self-aminoacylation, catalytic enhancement (BFO) (fold over background); higher = more active; k-Seq, kA / k0A0; sequences stand for … in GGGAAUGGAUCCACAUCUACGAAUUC…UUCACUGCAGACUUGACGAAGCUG
Fewer inactive variants are shown than the library holds.
Where self-aminoacylation equals or exceeds 1, the correct label is yes; where it does not, the label is no.

sequence_data | assigned_label
AGGUUUGCUUAUAGUCGCAAG [Fam3.1 aminoacylation ribozyme variant] | yes
UUUACCCUGGUCGUCGAGUGA [Fam2.1 aminoacylation ribozyme variant] | yes
CUACUUCAGACGAUCGGUCUG [Fam1A.1 aminoacylation ribozyme variant] | no
CUACUUCAAAAAAUCGUUCUG [Fam1A.1 aminoacylation ribozyme variant] | yes
AAGUUUGCUAUUAGACGCAAG [Fam3.1 aminoacylation ribozyme variant] | yes
GUACUUCAAACAAUCGGUAUG [Fam1A.1 aminoacylation ribozyme variant] | yes
GUUCAACUAGGUCAUCGGGUG [Fam2.2 aminoacylation ribozyme variant] | yes
AUUACCCUCGUUAUCGAGUGA [Fam2.1 aminoacylation ribozyme variant] | yes
CCACACUUCACGAAAUCGGUC [Fam1B.1 aminoacylation ribozyme variant] | no
CUUCUUCAAAAAAUCGGUCUG [Fam1A.1 aminoacylation ribozyme variant] | yes
AAGUUUUCUAAUAGUCACAAG [Fam3.1 aminoacylation ribozyme variant] | yes
AUUCGCCUAGCUCAUCGGGUG [Fam2.2 aminoacylation ribozyme variant] | yes
CUUCACGUAGGUCAUCGGGUG [Fam2.2 aminoacylation ribozyme variant] | yes
GCACACUUAAAGCAAUCGGUC [Fam1B.1 aminoacylation ribozyme variant] | yes
CUACUUCAAACAAUUGGACUG [Fam1A.1 aminoacylation ribozyme variant] | no
CUACUUGAAACAAUCGGUCUC [Fam1A.1 aminoacylation ribozyme variant] | no
AUUCACCUAGGUCAUCGAGGG [Fam2.2 aminoacylation ribozyme variant] | yes
